# TARGET_SYSTEM: acyl-CoA: cholesterol acyltransferase (ACAT) (Oryctolagus cuniculus)
# Sequence (G1SFD9 1-524): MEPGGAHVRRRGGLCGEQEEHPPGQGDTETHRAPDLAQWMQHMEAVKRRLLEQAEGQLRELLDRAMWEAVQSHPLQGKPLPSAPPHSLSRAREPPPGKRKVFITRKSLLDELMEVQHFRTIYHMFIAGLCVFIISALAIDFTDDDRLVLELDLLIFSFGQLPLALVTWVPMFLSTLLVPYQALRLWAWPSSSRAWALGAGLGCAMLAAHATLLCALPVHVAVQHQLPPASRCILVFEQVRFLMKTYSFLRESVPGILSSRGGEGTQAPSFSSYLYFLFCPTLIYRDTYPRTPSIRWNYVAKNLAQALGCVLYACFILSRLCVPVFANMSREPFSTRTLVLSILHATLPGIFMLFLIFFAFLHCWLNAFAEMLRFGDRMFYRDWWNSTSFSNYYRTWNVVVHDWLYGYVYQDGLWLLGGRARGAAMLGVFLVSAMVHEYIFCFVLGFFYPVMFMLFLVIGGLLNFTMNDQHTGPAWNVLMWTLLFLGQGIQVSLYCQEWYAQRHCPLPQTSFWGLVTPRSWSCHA
# EXPERIMENT_DESCRIPTION: in vitro ACAT inhibition (radiolabeled cholesterol oleate formed from radiolabeled oleic acid, rabbit intestinal microsomes)
# Format: biochemical

COMPOUND | MEASURE_UNIT | IC50
CCCCCCCCCCCCC(C)OC(=O)N(C)C(=O)Oc1c(C(C)C)cccc1C(C)C (stereo not shown) [Example 37] | nM | 600

* * *

# TARGET_SYSTEM: acyl-CoA: cholesterol acyltransferase (ACAT) (Oryctolagus cuniculus)
# EXPERIMENT_DESCRIPTION: in vitro ACAT inhibition (radiolabeled cholesterol oleate formed from radiolabeled oleic acid, rabbit intestinal microsomes)
# Format: biochemical
# ASSAY_CONDITIONS: rabbit intestinal microsomes; acylation of cholesterol by oleic acid; read-out: IC50
pIC50: −log10 of the molar value.
Some compounds, each annotated with its measured pIC50.

COMPOUND | BOUND_OPERATOR | pIC50
CC(C)c1cccc(C(C)C)c1OC(=O)NC(=O)Sc1ccccc1 | = | 5.74
CCCCCCCCCCCCOC(=O)NC(=O)Oc1c(OC)cc(OC)cc1OC | < | 5.30
O=C(NC(=O)OC(c1ccccc1)c1ccccc1)OC(c1ccccc1)c1ccccc1 | < | 5.30
CCCCCCCCCCCCSC(=O)NC(=O)Oc1c(C(C)C)cccc1C(C)C | = | 7.55
CCCCCCCCCCCCC(C)OC(=O)NC(=O)Oc1ccc(F)cc1F (centres unmarked) | < | 5.30
Cc1cccc(C)c1SC(=O)NC(=O)Sc1c(C)cccc1C | = | 6.64
CCCCCCOC(=O)NC(=O)Oc1c(C(C)C)cccc1C(C)C | = | 7.03
CC(C)c1cccc(C(C)C)c1OC(=O)NC(=O)Oc1cccc2ccccc12 | = | 5.92
CC(C)c1cccc(C(C)C)c1OC(=O)NC(=O)Oc1ccccc1 | = | 5.43
CCCCCCCCCCCCOC(=O)NC(=O)Sc1c(C(C)C)cccc1C(C)C | < | 5.30
CCCCCCCCCCCCCCCCCCOC(=O)NC(=O)Oc1c(C(C)C)cccc1C(C)C | = | 5.92
CCCCCCCCCCCCSC(=O)NC(=O)Sc1c(C(C)C)cccc1C(C)C | < | 6.00
CCCCCCCCCCCCCCCCOC(=O)NC(=O)Oc1c(C(C)C)cccc1C(C)C | = | 7.30
O=C(NC(=O)Oc1c(-c2ccccc2)cccc1-c1ccccc1)Oc1c(-c2ccccc2)cccc1-c1ccccc1 | = | 4.98

// provenance: patent US5189058A
